Let's look at some binders and their measured IC50 (SHP-1 recruitment blocking).
# System Tested: Full length human SIRPα v1 with beta-gal fragment (ED) at its C-terminal, in K562 cells (human, UniProt P78324 31-504)
# Sequence (P78324 31-504): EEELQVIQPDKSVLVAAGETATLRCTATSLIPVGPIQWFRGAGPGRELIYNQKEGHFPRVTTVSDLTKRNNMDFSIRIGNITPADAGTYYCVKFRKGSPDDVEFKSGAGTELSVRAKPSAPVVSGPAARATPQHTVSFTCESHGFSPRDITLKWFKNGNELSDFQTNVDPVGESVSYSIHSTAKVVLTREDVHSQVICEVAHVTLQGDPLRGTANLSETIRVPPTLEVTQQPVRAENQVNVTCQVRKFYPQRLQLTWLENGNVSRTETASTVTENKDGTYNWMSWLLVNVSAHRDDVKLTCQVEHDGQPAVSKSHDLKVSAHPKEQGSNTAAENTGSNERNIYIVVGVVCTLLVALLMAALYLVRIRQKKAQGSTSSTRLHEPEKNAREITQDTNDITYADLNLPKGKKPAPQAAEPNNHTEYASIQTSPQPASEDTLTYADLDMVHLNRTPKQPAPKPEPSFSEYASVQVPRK
# Test: cell-based or functional assay
Returns: string containing the numeric result and its unit.

Binder | IC50 (SHP-1 recruitment blocking)
Anti-SIRPα antibody C15 (antibody, V domains shown, Mouse variable regions; tested as purified chimeric antibody; also called 015c) VH: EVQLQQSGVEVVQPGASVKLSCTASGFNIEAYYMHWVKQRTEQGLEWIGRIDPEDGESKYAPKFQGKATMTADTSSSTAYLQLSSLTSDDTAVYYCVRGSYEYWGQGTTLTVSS VL: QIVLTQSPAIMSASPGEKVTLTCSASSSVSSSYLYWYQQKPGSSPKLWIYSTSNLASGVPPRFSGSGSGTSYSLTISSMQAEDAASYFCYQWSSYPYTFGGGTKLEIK | 0.09 nM
Anti-SIRPα antibody C73 (antibody, human IgG4, V domains shown, Mouse variable regions; also called 073c; 073C) VH: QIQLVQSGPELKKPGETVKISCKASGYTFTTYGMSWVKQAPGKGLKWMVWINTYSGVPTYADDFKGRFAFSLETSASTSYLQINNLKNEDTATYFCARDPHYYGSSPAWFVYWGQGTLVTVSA VL: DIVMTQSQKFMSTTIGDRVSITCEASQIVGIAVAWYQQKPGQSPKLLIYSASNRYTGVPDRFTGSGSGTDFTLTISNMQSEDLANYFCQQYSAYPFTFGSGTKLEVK | 5.66 nM
Anti-SIRPα antibody C59 (antibody, V domains shown, Mouse variable regions; tested as purified chimeric antibody; also called 059c) VH: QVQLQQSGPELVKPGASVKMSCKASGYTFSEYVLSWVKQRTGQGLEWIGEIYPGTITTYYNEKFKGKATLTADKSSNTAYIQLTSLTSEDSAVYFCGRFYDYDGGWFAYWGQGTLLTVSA VL: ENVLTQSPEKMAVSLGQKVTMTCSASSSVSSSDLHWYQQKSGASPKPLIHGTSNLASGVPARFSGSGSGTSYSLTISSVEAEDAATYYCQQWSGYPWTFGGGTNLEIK | 0.07 nM

Please examine the following record next.
Ask: Provide one value: measured IC50 (SHP-1 recruitment blocking) of Anti-SIRPα antibody C25 (antibody, V domains shown, Mouse variable regions; also called 025c; 025) VH: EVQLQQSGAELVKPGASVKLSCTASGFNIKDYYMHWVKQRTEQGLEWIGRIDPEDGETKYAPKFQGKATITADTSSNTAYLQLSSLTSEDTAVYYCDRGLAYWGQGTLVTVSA VL: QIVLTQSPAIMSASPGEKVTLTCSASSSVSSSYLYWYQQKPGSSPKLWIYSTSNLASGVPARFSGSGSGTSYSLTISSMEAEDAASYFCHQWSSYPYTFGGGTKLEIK
Result: 0.28 nM
